Data origin: patent US20130158063A1

TARGET: PPARα (Homo sapiens, UniProt Q07869)
Construct: purchased Cayman Chemicals
Sequence (Q07869 239-466 limits assumed): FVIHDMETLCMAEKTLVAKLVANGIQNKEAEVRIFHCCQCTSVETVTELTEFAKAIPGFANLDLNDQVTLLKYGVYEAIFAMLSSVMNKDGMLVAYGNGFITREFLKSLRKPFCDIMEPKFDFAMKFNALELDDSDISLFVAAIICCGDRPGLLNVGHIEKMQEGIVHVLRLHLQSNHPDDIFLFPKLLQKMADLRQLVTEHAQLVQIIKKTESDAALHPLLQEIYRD
ASSAY OVERVIEW: Fluorescent Polarization (FP) binding assay with corepressor peptides, PPARα
EXPERIMENTAL SETUP: Nb = no binding
OBSERVED PROPERTY: Binding assay EC50, α

Past entries and their recorded results:
CC(=O)Oc1ccc(C(=O)NN(C(=O)c2ccc(OC(C)=O)cc2)S(=O)(=O)c2ccc(C(C)(C)C)cc2)cc1 [YL-1-87]	nb
CC(C)(C)c1ccc(S(=O)(=O)N(NC(=O)c2ccc(O)cc2)C(=O)c2ccc(O)cc2)cc1 [YL-1-88]	nb
CC(C)(C)c1ccc(C(=O)N(NC(=O)c2ccc(Cl)cc2)S(=O)(=O)c2ccc(C(C)(C)C)cc2)cc1 [YL-1-80]	nb
CC(C)(C)c1ccc(S(=O)(=O)N(C(=O)c2ccc(Cl)cc2)N(C(=O)c2ccc(Cl)cc2)C(=O)c2ccc(Cl)cc2)cc1 [YL-1-68-1]	α nb γ nb
O=C1NN(c2cccc(F)c2)C(=O)/C1=C\c1ccc(-c2ccc(S(=O)(=O)Nc3ncco3)cc2)o1 [Sd-107-10]	nb
CC(C)(C)c1ccc(S(=O)(=O)N(NC(=O)c2ccc(Cl)cc2)C(=O)c2ccc(Cl)cc2)cc1 [YL-1-68-2]	nb

Value of Binding assay EC50, α reported for the compound O=C(NN(C(=O)c1ccc(Cl)cc1)S(=O)(=O)c1ccc(C(F)(F)F)cc1)c1ccc(Cl)cc1 [YL-1-81] is nb

Value of Binding assay EC50, α reported for the compound COc1ccc(S(=O)(=O)N(C(=O)c2ccc(Cl)cc2)N(C(=O)c2ccc(Cl)cc2)C(=O)c2ccc(Cl)cc2)cc1 [YL-1-38-1] is nb

Value of Binding assay EC50, α reported for the compound CC(C)(C)c1ccc(C(=O)N(N)S(=O)(=O)c2ccc(C(C)(C)C)cc2)cc1 [YL-1-69] is α nb γ nb

---

TARGET: PPARγ (Mus musculus)
Construct: expressed in transfected cells; host or cells: 293T cells
Sequence (P37238 whole entry): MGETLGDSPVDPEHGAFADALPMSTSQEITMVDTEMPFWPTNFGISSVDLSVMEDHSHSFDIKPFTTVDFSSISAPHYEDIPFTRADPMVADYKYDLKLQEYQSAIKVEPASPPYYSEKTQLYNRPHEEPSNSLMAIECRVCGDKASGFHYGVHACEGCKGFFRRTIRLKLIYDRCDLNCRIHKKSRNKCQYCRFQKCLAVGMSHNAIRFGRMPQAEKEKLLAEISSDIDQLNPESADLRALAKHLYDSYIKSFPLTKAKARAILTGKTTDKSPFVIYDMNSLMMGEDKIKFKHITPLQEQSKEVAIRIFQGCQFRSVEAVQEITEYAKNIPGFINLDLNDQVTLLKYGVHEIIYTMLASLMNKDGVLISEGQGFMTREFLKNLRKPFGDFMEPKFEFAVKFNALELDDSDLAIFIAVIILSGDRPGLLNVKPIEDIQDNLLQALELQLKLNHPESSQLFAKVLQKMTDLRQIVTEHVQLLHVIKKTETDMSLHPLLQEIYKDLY
ASSAY OVERVIEW: PPAR reporter assay in 293T cells, PPARγ (agonist GW7845)
Assay type: cell-based
EXPERIMENTAL SETUP: HEK-293T; 25 μM compound; 1 μM agonist GW7845; 293T cells; read-out: Reporter assay (% inhibition), γ
OBSERVED PROPERTY: inhibition at 25 µM (%)

O=C1NN(c2cccc(F)c2)C(=O)/C1=C\c1ccc(-c2ccc(S(=O)(=O)Nc3ncco3)cc2)o1	85
COc1ccc(S(=O)(=O)N(C(=O)c2ccc(Cl)cc2)N(C(=O)c2ccc(Cl)cc2)C(=O)c2ccc(Cl)cc2)cc1	75
CC(C)(C)c1ccc(S(=O)(=O)N(NC(=O)c2ccc(Cl)cc2)C(=O)c2ccc(Cl)cc2)cc1	67
CC(=O)Oc1ccc(C(=O)NN(C(=O)c2ccc(OC(C)=O)cc2)S(=O)(=O)c2ccc(C(C)(C)C)cc2)cc1	79
